The entries below are paired with their reported pIC50.
- target entity: human recombinant mTOR kinase (Homo sapiens)
- Construct: a purified recombinant mTOR fragment (amino acids 1360-2549, CBA104-1KIT from Calbiochem)
- Sequence (P42345 1360-2549): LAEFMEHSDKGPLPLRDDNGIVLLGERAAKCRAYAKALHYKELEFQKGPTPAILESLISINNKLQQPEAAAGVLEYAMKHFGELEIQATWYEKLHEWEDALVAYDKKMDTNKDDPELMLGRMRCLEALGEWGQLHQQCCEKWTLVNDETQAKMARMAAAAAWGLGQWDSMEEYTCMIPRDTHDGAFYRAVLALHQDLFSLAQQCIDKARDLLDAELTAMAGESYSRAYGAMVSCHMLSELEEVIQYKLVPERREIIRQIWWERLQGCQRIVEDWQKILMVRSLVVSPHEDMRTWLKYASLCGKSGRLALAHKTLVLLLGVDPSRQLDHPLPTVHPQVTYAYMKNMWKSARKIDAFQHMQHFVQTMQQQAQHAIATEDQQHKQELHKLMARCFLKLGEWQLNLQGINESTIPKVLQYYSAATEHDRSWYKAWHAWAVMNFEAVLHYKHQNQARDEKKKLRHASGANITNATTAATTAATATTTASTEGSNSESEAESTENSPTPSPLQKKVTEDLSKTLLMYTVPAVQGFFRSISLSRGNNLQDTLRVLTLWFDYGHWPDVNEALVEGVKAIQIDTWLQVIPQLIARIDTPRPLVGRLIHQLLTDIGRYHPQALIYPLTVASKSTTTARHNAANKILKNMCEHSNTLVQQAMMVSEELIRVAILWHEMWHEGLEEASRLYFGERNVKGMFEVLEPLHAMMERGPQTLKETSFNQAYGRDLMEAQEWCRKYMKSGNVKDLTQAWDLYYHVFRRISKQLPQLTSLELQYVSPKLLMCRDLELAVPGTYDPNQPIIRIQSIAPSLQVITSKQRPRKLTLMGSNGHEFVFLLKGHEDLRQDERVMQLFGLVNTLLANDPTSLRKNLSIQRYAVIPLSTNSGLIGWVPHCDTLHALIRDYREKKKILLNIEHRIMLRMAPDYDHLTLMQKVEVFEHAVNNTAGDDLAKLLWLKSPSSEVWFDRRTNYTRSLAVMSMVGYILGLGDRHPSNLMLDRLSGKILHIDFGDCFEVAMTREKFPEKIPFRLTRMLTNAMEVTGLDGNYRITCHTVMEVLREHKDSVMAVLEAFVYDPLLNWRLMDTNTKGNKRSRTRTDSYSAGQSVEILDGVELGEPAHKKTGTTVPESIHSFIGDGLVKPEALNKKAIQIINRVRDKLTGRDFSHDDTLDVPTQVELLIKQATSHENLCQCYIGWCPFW
- procedure summary: In vitro mTOR kinase assay (K-LISA ELISA, p70S6K-GST substrate)
- run parameters: mean ± SD of triplicate measurements
pIC50: −log10 of the molar value.
attribute measured: pIC50

>>> data_value("O=C(CCl)Nc1ccc(/C=C2\\CCCn3c2nc2cc(NC(=O)CCl)ccc2c3=O)cc1 [Compound 36]")
4.83
>>> data_value("COc1cccc(-c2nn3c(N)c(C#N)c(-c4cccnc4)nc3c2C)c1 [Compound 27]")
4.54
>>> data_value("c1coc(-c2nnc3sc(-c4cnccn4)nn23)c1 [Compound 21]")
4.84
